assay overview: Cellular toxicity in LLC/MK2 cells (MTS assay)
Type: cell-based
test parameters: rhesus monkey; LLC/MK2 cells; read-out: CC50
property name: CC50 at 2 days

Requested field: CC50 at 2 days. Item: `CCC(=O)Oc1cc2oc(-c3ccccc3)cc(=O)c2c(OC(=O)CC)c1OC(=O)CC`
> 100 µM

---

assay overview: Cellular toxicity in LLC/MK2 cells (MTS assay)
Format: cell-based
test parameters: rhesus monkey
property name: CC50 at 2 days

Look at this compound and give its reported CC50 at 2 days. CCC(=O)Oc1cc2oc(-c3ccccc3)cc(=O)c2c(O)c1OC(=O)CC [5e, 5-Hydroxy-6,7-dipropionoxyflavone]
> 100 µM

---

System: DENV2
assay overview: Antiviral efficacy (EC50) against DENV2 in LLC/MK2 cells, plaque titration
Type: cell-based, DENV2 (New Guinea C strain)
test parameters: Dengue virus, DENV2; LLC/MK2 cells; three independent experiments; read-out: EC50 (50% effective concentration against DENV2)
Procedure: LLC/MK2 (ATCC® CCL-7), and C6/36 (ATCC® CRL-1660) cell lines were propagated and maintained as previously described[18],[29],[31]. Effective concentration (EC50) of the compounds against the DENV2 were tested using LLC/MK2 cells[18],[29]. Briefly, cells were seeded overnight and infected with each virus at the multiplicity of infection (M.O.I.) of 0.1 for 1 h. The compound was added during and after infection, and cells were incubated for 72 h. Supernatants were collected for plaque titration. […]
property name: pEC50
Numbers only, as −log10 of the molar value.

Reference set (3 entries):
CC(=O)Oc1cc2oc(-c3ccccc3)cc(=O)c2c(OC(C)=O)c1OC(C)=O ... 6.39
O=c1cc(-c2ccc([N+](=O)[O-])cc2)oc2cc(O)c(O)c(O)c12 [5n, 5,6,7-Trihydroxy-4′-nitroflavone] ... 5.37
O=c1cc(-c2ccc(Br)cc2)oc2cc(O)c(O)c(O)c12 [5m, 4′-Bromo-5,6,7-trihydroxyflavone] ... 6.28

We next turn to a different compound, shown below.
State the recorded pEC50 for this entry: `CC(=O)Oc1c(OC(C)=O)c(OC(C)=O)c2c(=O)cc(-c3ccccc3)oc2c1Br`
6.59

---

Tested on: DENV2
assay overview: Antiviral efficacy (EC50) against DENV2 in LLC/MK2 cells, plaque titration
Format: cell-based, DENV2 (New Guinea C strain)
test parameters: Dengue virus, DENV2; LLC/MK2 cells; three independent experiments; read-out: EC50 (50% effective concentration against DENV2)
property name: EC50

Known EC50 results, listed for orientation:
CCC(=O)Oc1cc2oc(-c3ccccc3)cc(=O)c2c(O)c1OC(=O)CC [5e, 5-Hydroxy-6,7-dipropionoxyflavone] ... 68 nM
CCC(=O)Oc1cc2oc(-c3ccccc3)cc(=O)c2c(OC(=O)CC)c1OC(=O)CC ... 70 nM

We now examine a further compound.
Form field: EC50 recorded for COc1cc2oc(-c3ccc([N+](=O)[O-])cc3)cc(=O)c2c(O)c1OC [5q, 5-Hydroxy-6,7-dimethoxy-4′-nitroflavone] with DENV2 (enter value)
4520 nM

---

assay overview: Cellular toxicity in LLC/MK2 cells (MTS assay)
Format: cell-based
test parameters: rhesus monkey
Threshold 90%: viability at 2 days, 10 µM strictly smaller gives yes, otherwise no.

Please review the following examples before continuing.
COc1cc2oc(-c3ccc(Br)cc3)cc(=O)c2c(OC)c1OC [5j, 4′-Bromo-5,6,7-trimethoxylflavone] ... no
Nc1c(O)cc(O)c2c(=O)cc(-c3ccccc3)oc12 [4f, 8-Amino-5,7-dihydroxyflavone] ... no
Nc1ccc(-c2cc(=O)c3c(O)c(O)c(O)cc3o2)cc1 [5o, 4′-Amino-5,6,7-trihydroxyflavone] ... no
COc1cc2oc(-c3ccc([N+](=O)[O-])cc3)cc(=O)c2c(O)c1OC [5q, 5-Hydroxy-6,7-dimethoxy-4′-nitroflavone] ... yes
CC(=O)Oc1c(OC(C)=O)c(OC(C)=O)c2c(=O)cc(-c3ccccc3)oc2c1Br [5g, 5,6,7-Triacetoxy-8-bromoflavone] ... yes

Lab note: viability at 2 days, 10 µM threshold 90%. Does this compound come in strictly under it? COc1ccc2c(=O)cc(-c3ccccc3)oc2c1 [2b, 7-Methoxyflavone]
yes

Please state whether viability at 2 days, 10 µM is below 90% for O=c1cc(-c2ccccc2)oc2c3c(ccc12)OCO3 [3b, 7,8-Dioxoloflavone]
no

# strict comparison: is reported viability at 2 days, 10 µM < 90%? input = O=c1cc(-c2ccc([N+](=O)[O-])cc2)oc2cc(O)c(O)c(O)c12 [5n, 5,6,7-Trihydroxy-4′-nitroflavone]
yes

Could you please tell me whether viability at 2 days, 10 µM recorded for O=c1cc(-c2ccccc2)oc2cc(O)cc(O)c12 [4a, chrysin] is less than 90%?
yes

State whether 90% exceeds viability at 2 days, 10 µM recorded for COc1cc2oc(-c3ccc(N)cc3)cc(=O)c2c(OC)c1OC [5l, 4′-Amino-5,6,7-trimethoxyflavone] .
no

Take the compound COc1cc2oc(-c3ccccc3)cc(=O)c2c(O)c1OC [5b, 5-Hydroxy-6,7-dimethoxyflavone] and say whether its viability at 2 days, 10 µM is less than 90%.
no

Would you kindly verify if viability at 2 days, 10 µM of COc1ccc2oc(-c3ccccc3)cc(=O)c2c1 [1b, 6-Methoxyflavone] is strictly less than 90%?
no
